Test system: HCT-116 colon
Test: NCI-60 one-dose screen, 48 h (100 = growth as untreated, 0 = no growth, -100 = all killed)
Details: 10 µM unless noted
Description: Growth inhibition of the HCT-116 human tumor cell line is measured as a screen for anti-cancer activity. Cells are grown in 96 well plates and exposed to the test compound for 48 hours. Compounds are tested at a single concentration, which is 10^-5 M for most compounds. The reported endpoint is percent growth (GI% or GIPRCNT), where numbers from 0 - 100% represent growth inhibition, and numbers from -100% - 0 represent cell death. For example, a value of 40 represents 60% growth inhibition. […]
About 83,000 compounds went through this panel and 20% of them were active in at least one assay; those are over-represented in the sample as a whole.
measurement-type: growth (%)
The reply should be a number in %, with the unit left off.

Ask | Which growth is listed for C=C1C(=O)O[C@H]2[C@H]1CC/C(CNC(=O)/C=C/c1cccc(OC)c1)=C\CC[C@@]1(C)O[C@@H]21 ?
Reply | -62.2

Ask | Proceed to Cc1ccc(/C=N/NC(=O)CSc2nc3ccccc3c(=O)n2Cc2ccc(S(N)(=O)=O)cc2)cc1
Reply | 97.8

Ask | For CCOC(=O)c1cc(C(=O)c2ccc(OC)cc2)n2ccc(/C=C/c3cc[n+](CC(=O)c4ccc(OC)cc4)cc3)cc12 then?
Reply | 3.01

Ask | Try this molecule next: Nc1c(S(=O)(=O)O)cc2c3c(cccc13)C(=O)OC2=O
Reply | 98.6

Ask | Next record, please: COc1cc(/C(C)=C(\c2ccc(Cl)cc2)c2ccc(OCCN3CCCC3)cc2)ccc1F
Reply | 39.2

Ask | Queued: CNC(=O)c1cncc(Cn2nc(C)c(NC(=O)c3ccc(COc4ccc(C(F)(F)F)cc4C)cc3)c2C)c1
Reply | 44.7

Ask | Request: S=c1cc(S)c2cc(Br)ccc2[nH]1
Reply | 78.2

Ask | Same thing, different molecule: CN(C)CC(O)c1ccc(/C=C/c2ccc(Cl)cc2)cc1 (centres undefined)
Reply | -58.3

Ask | Let us now turn to COc1ccc(-c2nc([C@@H](C)Sc3nc(N)cc(N)n3)c(C)s2)cc1OCCN1CCOCC1
Reply | 103

* * *

System: OVCAR-5 ovarian
Assay: NCI-60 one-dose screen, 48 h (100 = growth as untreated, 0 = no growth, -100 = all killed)
Details: 10 µM unless noted
About 83,000 compounds went through this panel and 20% of them were active in at least one assay; those are over-represented in the sample as a whole. Active and inactive are the calls of the source. Rule for the calls: active = growth percent below 10; inactive = the rest.
measurement-type: growth

Ask | Any idea what growth was measured for COc1cc(NC(C)CCCNC(=O)CCC(=O)NCCCNCCCCCCCCCCNCCCNC(=O)CCC(=O)NCCCC(C)Nc2cc(OC)cc3cccnc23)c2ncccc2c1 (centres undefined) ?
Reply | 79.3% [8 µM] (inactive)

Ask | Quick one: CCN(Cc1ccccc1)c1ccc(C=O)cc1
Reply | 93.1% (inactive)

Ask | Now give it for COc1cc2c(-c3cc4c(cc3CNCCc3ccc5c(c3)OCO5)OCO4)cccc2c(OC)c1O too.
Reply | 90.9% (inactive)

Ask | # iterate: CCOC(=O)Oc1c(OC)cc(C(=O)c2ccc(OC)c(OC(=O)CCl)c2OC)cc1OC
Reply | 77% (inactive)

* * *

Test system: MCF7 breast
Test: NCI-60 one-dose screen, 48 h
Conditions: 10 µM unless noted
This is part of a sample that, as a whole, favours compounds with a hit. Of some 83,000 tested, about 20% had one in any assay. The source made the active and inactive calls. How the source made its calls: active means growth percent below 10; inactive means the rest.
Outcome (select one): active, inactive

Ask | For COc1ccccc1/C=C1\Oc2cc(OCCN3CCCC3)ccc2C1=O , what call appears in the results of this test?
Reply | inactive

Ask | Same again, this time with Oc1c(Cl)cc(Cl)c(Cl)c1CNCCNCc1c(O)c(Cl)cc(Cl)c1Cl
Reply | inactive

Ask | COc1cc(/C=C/c2cc(O)c(C(C)=O)c(O)c2)cc2c1O[C@]1(C)CC[C@@H](O)C(C)(C)[C@H]1C2 ?
Reply | inactive

Ask | What do we get for O=[N+]([O-])c1ccc(NC(=S)N/N=C/c2cc3ccccc3n3nnnc23)cc1 ?
Reply | inactive

Ask | Next compound up: CC(=O)CCC(=O)OCc1cc(=O)c(O)co1
Reply | inactive

Ask | Please do the same for Cc1ccc(C(=O)/C(=C/c2ccc([N+](=O)[O-])cc2)SCc2ccc(Cl)cc2)cc1 as well.
Reply | inactive

Ask | Thanks! And Cn1ccnc1C(=O)/C=C/c1ccc(CC(=O)NC2CCCCC2)cc1 ?
Reply | inactive

Ask | Subsequent entry: CCCCCOc1ccc(/C=N/Nc2cc(C)nc3ccc(Cl)cc23)cc1
Reply | active

Ask | Likewise for Cc1nc2ccc(Cl)cn2c1-c1nnc(SCc2ccc([N+](=O)[O-])cc2)o1 ?
Reply | inactive

Ask | Further, for CCOc1ccc(/C=N/Nc2cc(C)nc3ccc(Br)cc23)cc1 ?
Reply | inactive

Ask | Let us now turn to C=C(CBr)[C@@H]1CC[C@]2(COC(C)=O)CC[C@]3(C)[C@H](CC[C@@H]4[C@@]5(C)CCCNC(C)(C)[C@@H]5CC[C@]43C)[C@@H]12
Reply | inactive

Ask | Further, for CC1=C(C(=O)/C=C/c2ccc(N(C)C)cc2)C(c2ccccc2)NC(=S)N1 (centres undefined) ?
Reply | inactive

Ask | Next: Nc1nc(Nc2ccccc2SSc2ccccc2Nc2nc(N)nc(-c3cccs3)n2)nc(-c2ccsc2)n1
Reply | inactive

Ask | Now the compound CCCCC[n+]1ccc(SCC(=O)N(C)c2ccc(Oc3ccccc3)cc2)c2ccccc21
Reply | inactive

Ask | Consider next the compound CC1(C)NCCC[C@]2(C)[C@H]3CC(=O)[C@H]4[C@@H]5C[C@](C)(CO)CC[C@]5(C)CC[C@@]4(C)[C@]3(C)CC[C@@H]12 in the same way.
Reply | inactive

Ask | Moving on to Cc1cc2nc3c4cc([N+](=O)[O-])ccc4n(CCN(C)C)c3nc2cc1C
Reply | active

Ask | Queued: CCCCCCCCOc1ccc(/C=N/Nc2cc(C)nc3ccc(Br)cc23)cc1
Reply | inactive

Ask | Thanks! And CCOC(=O)c1nc2c3ccccc3ccn2c1C(=O)OCC ?
Reply | inactive

Ask | For N#CC1=C(N)Oc2c(cnn2-c2ccc([N+](=O)[O-])cc2[N+](=O)[O-])C1c1ccccc1 (centres undefined) then?
Reply | inactive

* * *

System: KM12 colon
Experiment: NCI-60 one-dose screen, 48 h (100 = growth as untreated, 0 = no growth, -100 = all killed)
Settings: 10 µM unless noted
This is part of a sample that, as a whole, favours compounds with a hit. Of some 83,000 tested, about 20% had one in any assay. The source made the active and inactive calls. The calls were made as follows: active = growth percent below 10; inactive = the rest.
measurement-type: growth

Ask | Can you look up growth on KM12 colon for C=C1C(=O)O[C@H]2[C@H]1CC/C(COC(=O)NCc1c[nH]c3ccc(F)cc13)=C\CC[C@@]1(C)O[C@@H]21 ?
Reply | 33.5% (inactive)

Ask | // next record N/C(=N\C(N)=N\c1nc2ccccc2s1)c1ccnc(Br)c1
Reply | 23.9% (inactive)

Ask | Next record, please: CCNC(=O)Oc1ccc(/C(=C(\C)c2ccccc2)c2ccc(OCCN3CCCCC3)cc2)cc1
Reply | 50.8% (inactive)

Ask | Next molecule up: O=c1ccc(-c2nc(N3CCOCC3)c3ccccc3n2)c[nH]1
Reply | 107% (inactive)

* * *

Test system: UO-31 renal
Test: NCI-60 one-dose screen, 48 h (100 = growth as untreated, 0 = no growth, -100 = all killed)
Conditions: 10 µM unless noted
Procedure: Growth inhibition of the UO-31 human tumor cell line is measured as a screen for anti-cancer activity. Cells are grown in 96 well plates and exposed to the test compound for 48 hours. Compounds are tested at a single concentration, which is 10^-5 M for most compounds. The reported endpoint is percent growth (GI% or GIPRCNT), where numbers from 0 - 100% represent growth inhibition, and numbers from -100% - 0 represent cell death. For example, a value of 40 represents 60% growth inhibition. […]
Compounds without any hit were thinned out: in the full panel of roughly 83,000, 20% have a hit.
# label = criterion met if growth < 50% else criterion not met

Ask | Lab log: compare recorded growth with 50%; is it strictly lower for Oc1c(Cl)cc(Cl)c(Cl)c1CNCCNCc1c(O)c(Cl)cc(Cl)c1Cl ?
Reply | criterion met

Ask | Again, but for O=C(O)c1ccc(-c2nn(-c3ccc(C(F)(F)F)cc3)cc2CNc2ccc(Oc3ccccc3)cc2)cc1
Reply | criterion not met

Ask | Note, next up: O=C1Nc2ccccc2/C1=C\c1c(-c2ccccc2)nc2ccccn12
Reply | criterion met

Ask | Another compound to check: O=[N+]([O-])c1ccc(N=Nc2cc(S(=O)(=O)O)c3cccc(S(=O)(=O)O)c3c2O)cc1
Reply | criterion not met

Ask | Query COc1cc2c3c(c4c5ccccc5[nH]c4c2c(OC)c1OC)C(=O)N(CCN1CCOCC1)C3=O next
Reply | criterion not met

Ask | Also, CCc1ccc(-c2cn3ccnc3c(-c3ccc4ncn(Cc5ccccc5)c4c3)n2)cc1 please.
Reply | criterion met

Ask | One more compound: COc1ccc(/C=C/c2nc(Nc3ccc(S(=O)(=O)NC(C)=O)cc3)c3ccccc3n2)cc1
Reply | criterion not met

Ask | What about COC(=O)/C=C1\S/C(=N\NC(=O)c2cc3ccc2/C=C\c2ccc(cc2)/C=C\3)N(Cc2ccccc2)C1=O ?
Reply | criterion met

Ask | What about COc1cc(NC(C)CCCNC(=O)CCC(=O)NCCCNCCCCCCCCNCCCNC(=O)CCC(=O)NCCCC(C)Nc2cc(OC)cc3cccnc23)c2ncccc2c1 (stereo not drawn) ?
Reply | criterion not met

Ask | How about this compound: C=CCN1C(=O)/C(=C/C(=O)OC)S/C1=N\NC(=O)c1cc2ccc1/C=C\c1ccc(cc1)/C=C\2
Reply | criterion not met

Ask | Proceed to O=C(CCN1CCCC1)Nc1ccc2c(NCc3ccccc3)c3ccccc3nc2c1
Reply | criterion met

Ask | Query COc1ccccc1/C(C)=N/NC(=O)CSc1nc2ccccc2c(=O)n1Cc1ccc(S(N)(=O)=O)cc1 next
Reply | criterion not met

Ask | Try this compound next: COc1ccc(C(=O)CSc2nc(-c3cc(OC)ccc3OC)cc(-c3ccc(Cl)cc3)c2C#N)cc1
Reply | criterion met

Ask | Can you check COc1cc2c(cc1OC)C(=O)/C(=C/c1cc(C)c(O)c(C)c1)S2 next?
Reply | criterion not met

Ask | Entry to check: O=c1[nH]nc(-c2ccccc2)c2sc3ncc(-c4ccc(Br)cc4)n3c12
Reply | criterion not met

Ask | Check CC1(C)CC[C@]2(C(=O)O)CC[C@]3(C)C(=CC[C@@H]4[C@@]5(C)Cc6c([nH]c7ccccc67)C(C)(C)[C@@H]5CC[C@]43C)[C@@H]2C1 too.
Reply | criterion met

Ask | Quick one: COc1cc2oc(-c3cccc(C(=O)Nc4ccc(Cl)cc4)c3)cc(=O)c2c(O)c1OC
Reply | criterion met
